System: 769-P
Assay: AUC of dose-response viability curve, drug alone (arbitrary (AUC of normalised viability)); higher = less growth inhibition
Details: treatment: drug alone; 5 days
Under this convention, Fulfilled denotes AUC of dose-response viability curve strictly below 3 and Not fulfilled denotes AUC of dose-response viability curve at or above 3.

Reference set, count: 4
{"columns": ["Compound", "Target system", "Qualitative label"],
 "data": [
  ["C[C@@H]1CN(CC(=O)Nc2ccc3c(c2)Cc2cccc(-c4cc(=O)cc(N5CCOCC5)o4)c2S3)C[C@H](C)O1", "769-P", "Not fulfilled"],
  ["COc1ccc2c(Oc3ccc(NC(=O)c4c(C)n(CC(C)(C)O)n(-c5ccccc5)c4=O)nc3)ccnc2c1", "769-P", "Not fulfilled"],
  ["COc1cc2ncnc(Nc3ccc(F)c(Cl)c3)c2cc1OCCCN1CCOCC1", "769-P", "Fulfilled"],
  ["C[C@@H]1COC(Nc2ccc3ncnc(Nc4ccc(OCc5nccs5)c(Cl)c4)c3c2)=N1", "769-P", "Fulfilled"]
]}

Enquiry: Would you kindly verify if AUC of dose-response viability curve of O=C(NOCC(O)CO)c1cc(Br)c(F)c(F)c1Nc1ccc(I)cc1F (stereo not given) is strictly less than 3?
Return: Fulfilled

* * *

Test system: SN12C
Assay: minimum viability across doses, drug alone, relative to DMSO (fraction); higher = less growth inhibition
Details: treatment: drug alone; 5 days
Item-by-item account of minimum viability across doses
# respond with the number and nothing more

Example results:
{"columns": ["Compound", "Value"],
 "data": [
  ["CCn1c(-c2nonc2N)nc2c(C#CC(C)(C)O)ncc(OC[C@H]3CCCNC3)c21", 0.693],
  ["COc1ccc(COc2cc3oc(=O)c4cc(C(C)O)ccc4c3cc2OC)cc1 (stereo unspecified) [Palomid 529]", 0.844],
  ["CC[C@@H]1C(=O)N(C)c2cnc(Nc3ccc(C(=O)NC4CCN(C)CC4)cc3OC)nc2N1C1CCCC1 [BI 2536]", 0.0427]
]}

Consider the additional compound presented here.
With SN12C as the test system, C#Cc1cccc(Nc2ncnc3cc(OCCOC)c(OCCO)cc23)c1 showed minimum viability across doses of 0.645

* * *

System: SN12C
Experiment: AUC of dose-response viability curve, drug alone (arbitrary (AUC of normalised viability)); higher = less growth inhibition
Details: treatment: drug alone; 5 days
Quantity: AUC of dose-response viability curve
# respond with the number and nothing more

Example results:
{"columns": ["Compound", "Target system", "AUC of dose-response viability curve"],
 "data": [
  ["Cc1cc(Nc2nc(N[C@@H](C)c3ccc(F)cc3)c(C#N)cc2F)n[nH]1", "SN12C", 2.5],
  ["Cc1cc2c(F)c(Oc3ncnn4cc(OC[C@@H](C)O)c(C)c34)ccc2[nH]1", "SN12C", 3.28],
  ["CCCCCCCCCCCCc1ccc(S(=O)(=O)Nc2nncs2)cc1", "SN12C", 3.22]
]}

AUC of dose-response viability curve for COc1ccc(C2=NC(c3ccc(Cl)cc3)C(c3ccc(Cl)cc3)N2C(=O)N2CCNC(=O)C2)c(OC(C)C)c1 (centres undefined) is 3.31

* * *

Item-by-item account of GI50, drug alone
System: 769-P
Test: GI50, drug alone; higher = less potent
Conditions: treatment: drug alone; 5 days
API: value field is a number in µM; no unit string.

{"columns": ["Molecule", "Unit symbol", "GI50, drug alone"],
 "data": [
  ["CC(O)C(=O)O.CC(O)C(=O)O.CN1CCN(c2ccc3nc(-c4c(N)c5c(F)cccc5[nH]c4=O)[nH]c3c2)CC1 [Dovitinib Dilactic acid (TKI258 Dilactic acid)]", "µM", 3.05]
]}

GI50, drug alone for C[C@@H]1COC(Nc2ccc3ncnc(Nc4ccc(OCc5nccs5)c(Cl)c4)c3c2)=N1 is 4.05

GI50, drug alone for Cc1ccc([N+](=O)[O-])cc1S(=O)(=O)N(C)/N=C/c1cnc2ccc(Br)cn12.Cl [PIK-75] is 0.117

GI50, drug alone for COc1cc2c(Oc3ccc4[nH]c(C)cc4c3F)ncnc2cc1OCCCN1CCCC1 [Cediranib (AZD2171)] is 5.43

GI50, drug alone for COc1cc(Nc2ncc(F)c(Nc3ccc4c(n3)NC(=O)C(C)(C)O4)n2)cc(OC)c1OC [R406(free base)] is 9.62

* * *

Test system: 786-O
Experiment: AUC of dose-response viability curve, drug alone (arbitrary (AUC of normalised viability)); higher = less growth inhibition
Details: treatment: drug alone; 5 days
Under this convention, Condition met denotes AUC of dose-response viability curve strictly below 2 and Condition not met denotes AUC of dose-response viability curve at or above 2.

Reference set, count: 4
{"columns": ["Compound structure", "Target system", "Qualitative label"],
 "data": [
  ["O=c1cc(-c2cccc3c2Sc2ccccc2S3)oc(N2CCOCC2)c1", "786-O", "Condition not met"],
  ["CCc1cccc(CC)c1NC(=O)N1Cc2[nH]nc(NC(=O)c3ccc(N4CCN(C)CC4)cc3)c2C1", "786-O", "Condition not met"],
  ["COc1ccc(S(=O)(=O)N(C(C)=O)c2ccccc2/C=C/c2cc[n+]([O-])cc2)cc1", "786-O", "Condition met"],
  ["C[C@@H]1CN(CC(=O)Nc2ccc3c(c2)Cc2cccc(-c4cc(=O)cc(N5CCOCC5)o4)c2S3)C[C@H](C)O1", "786-O", "Condition not met"]
]}

Enquiry: Would you kindly verify if AUC of dose-response viability curve of Cc1nc(NC(=O)N2CCC[C@H]2C(N)=O)sc1-c1csc(C(C)(C)C)n1 is strictly less than 2?
Return: Condition not met

* * *

Test system: A498
Assay: GI50 of drug in presence of dasatinib; higher = less potent
Settings: treatment: drug + dasatinib (fixed dose, not stated); 5 days
Item-by-item account of GI50 of drug

{"columns": ["Compound", "GI50 of drug"],
 "data": [
  ["C#Cc1cccc(Nc2ncnc3cc(OCCOC)c(OCCOC)cc23)c1.Cl [Erlotinib HCl] + Cc1nc(Nc2ncc(C(=O)Nc3c(C)cccc3Cl)s2)cc(N2CCN(CCO)CC2)n1", "> 10 µM"],
  ["COc1cc2nccc(Oc3ccc(NC(=O)NC4CC4)c(Cl)c3)c2cc1C(N)=O [E7080 (Lenvatinib)] + Cc1nc(Nc2ncc(C(=O)Nc3c(C)cccc3Cl)s2)cc(N2CCN(CCO)CC2)n1", "> 10 µM"]
]}

Consider the additional compound presented here.
GI50 of drug for O=c1sn(-c2cccc3ccccc23)c(=O)n1Cc1ccccc1 [Tideglusib] + Cc1nc(Nc2ncc(C(=O)Nc3c(C)cccc3Cl)s2)cc(N2CCN(CCO)CC2)n1 is > 10 µM

* * *

Test system: TK-10
Assay: AUC of dose-response viability curve, drug alone (arbitrary (AUC of normalised viability)); higher = less growth inhibition
Details: treatment: drug alone; 5 days
Quantity: AUC of dose-response viability curve
# respond with the number and nothing more

AUC of dose-response viability curve for Cn1cnc2c(F)c(Nc3ccc(Br)cc3Cl)c(C(=O)NOCCO)cc21 [AZD6244 (Selumetinib)] is 2.45

* * *

Test system: TK-10
Assay: minimum viability across doses, drug alone, relative to DMSO (fraction); higher = less growth inhibition
Conditions: treatment: drug alone; 5 days
Under this convention, MET denotes minimum viability across doses strictly below 0.2 and NOT MET denotes minimum viability across doses at or above 0.2.

Reference set, count: 3
{"columns": ["Compound", "Qualitative label"],
 "data": [
  ["NC(=O)c1ccc(-c2nc(-c3ccc4c(c3)OCO4)c(-c3ccccn3)[nH]2)cc1", "NOT MET"],
  ["CC(C)(C)c1cnc(CSc2cnc(NC(=O)C3CCNCC3)s2)o1", "MET"],
  ["CNC(=O)c1cccc(-c2ccc3c(N4CCOC[C@@H]4C)nc(N4CCOC[C@@H]4C)nc3n2)c1 [AZD2014]", "MET"]
]}

Enquiry: Would you kindly verify if minimum viability across doses of COc1cc2ncnc(Nc3cccc(Br)c3)c2cc1OC.Cl is strictly less than 0.2?
Return: MET

Enquiry: Would you kindly verify if minimum viability across doses of CS(=O)c1ccc(-c2nc(-c3ccc(F)cc3)c(-c3ccncc3)[nH]2)cc1 (configuration not stated) is strictly less than 0.2?
Return: NOT MET

Enquiry: Would you kindly verify if minimum viability across doses of OCc1ccc(-c2ccc(-c3ccc(CO)s3)o2)s1 is strictly less than 0.2?
Return: MET

* * *

Item-by-item account of GI50, drug alone
System: UO-31
Assay: GI50, drug alone; higher = less potent
Details: treatment: drug alone; 5 days

Example results:
{"columns": ["Compound", "GI50, drug alone"],
 "data": [
  ["CCO.N#CC(=C(/N)Sc1ccccc1N)/C(C#N)=C(\\N)Sc1ccccc1N [U0126-EtOH]", "> 10 µM"],
  ["CN(C)CCOc1ccc(-c2nc(-c3ccncc3)c(-c3ccc4c(c3)CC/C4=N/O)[nH]2)cc1", "> 10 µM"]
]}

Consider the additional compound presented here.
GI50, drug alone for COc1cc2nccc(Oc3ccc(NC(=O)C4(C(=O)Nc5ccc(F)cc5)CC4)cc3)c2cc1OC [XL-184 free base (Cabozantinib)] is > 10 µM
